Molecular target: human prostanoid TP receptor (Homo sapiens, UniProt P21731)
Construct: expressed in transfected cells
Sequence (P21731 whole entry): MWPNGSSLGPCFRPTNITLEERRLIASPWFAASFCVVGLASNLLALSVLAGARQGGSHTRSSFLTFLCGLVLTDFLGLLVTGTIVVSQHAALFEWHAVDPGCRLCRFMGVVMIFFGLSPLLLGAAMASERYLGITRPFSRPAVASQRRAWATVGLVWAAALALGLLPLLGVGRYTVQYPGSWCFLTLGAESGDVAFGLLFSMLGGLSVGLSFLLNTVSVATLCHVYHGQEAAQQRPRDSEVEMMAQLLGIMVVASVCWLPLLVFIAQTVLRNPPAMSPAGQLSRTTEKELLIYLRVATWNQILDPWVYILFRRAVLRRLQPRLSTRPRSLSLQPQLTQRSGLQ
Assay: FLIPR Ca2+ signaling PG antagonist assay, TP stable cell line
Type: cell-based
Conditions: HEK-293 EBNA cells, human recombinant TP, no exogenous G-protein; standard agonist U-46619
READOUT_LABEL: Kb (nM)

                                    compound  readout_label  result_comparator    val
 0  CC(C)COc1ccc(Br)cc1Cn1ccc2cc(C(=O)O)ccc21             Kb                  =    160
 1  O=C(O)c1ccc2c(cnn2Cc2cc(Br)ccc2OCc2ccc(Cl)cc2)c1             Kb                  =    900
 2  CCC(CC)Oc1ccc(Br)cc1Cn1ncc2cc(C(=O)O)ccc21             Kb                  =     50
 3  CCC(CC)COc1ccc(Cl)cc1Cn1ncc2ccc(C(=O)O)cc21 [Example 6]             Kb                  =    150
 4  CC(C)COc1ccc(Br)cc1Cn1ccc2cc(C(=O)O)cnc21             Kb                  =      3
 5  CCC(CC)COc1ccc(Cl)cc1Cn1ncc2ccc(C(=O)O)cc21 [Example 46]             Kb                  =    150
 6  CC(C)COc1ccc(Br)cc1Cn1cc2ccc(C(=O)O)cc2n1             Kb                  =    110
 7  Cc1nn(Cc2cc(C(F)(F)F)ccc2OCC(C)C)c2ccc(C(=O)O)cc12             Kb                  =     50
 8  CC(C)COc1c(F)cc(Cl)cc1Cn1ncc2cc(C(=O)O)ccc21             Kb                  ≥  10000
 9  CC(C)COc1ccc(C(F)(F)F)cc1Cn1ncc2cc(C(=O)O)ccc21             Kb                  =      4
10  CCc1nn(Cc2cc(Br)ccc2OCC(CC)CC)c2ccc(C(=O)O)cc12             Kb                  =     52
11  CC(C)COc1ccc(Cl)cc1Cn1cc2cc(C(=O)O)ccc2n1             Kb                  =    400
12  CCC(CC)COc1ccc(Cl)cc1Cn1ncc2cc(C(=O)O)ncc21             Kb                  =    180
13  Cc1cn(Cc2cc(OC(F)(F)F)ccc2OCC(C)C)c2ccc(C(=O)O)cc12             Kb                  =    300
14  CCC(CC)COc1ccc(Br)cc1Cn1nc(C)c2cc(C(=O)O)ccc21             Kb                  =     20
15  Cc1cc2cc(C(=O)O)ccc2n1Cc1cc(Br)ccc1OCC(C)C             Kb                  =    320
16  CCC(CC)COc1ccc(Cl)cc1Cn1nc(C)c2cc(C(=O)O)cnc21             Kb                  =    410
17  CCC(CC)COc1ccc(Br)cc1Cn1cnc2cc(C(=O)O)ccc21             Kb                  =     16
18  CCc1nn(Cc2cc(Br)ccc2OCC(C)C)c2ccc(C(=O)O)cc12             Kb                  =      8
19  CCC(CC)COc1ccc(Cl)cc1Cn1nc(C)c2cc(C(=O)O)ccc21             Kb                  =      1
20  CCC(CC)COc1ccc(Cl)cc1Cn1ncc2cc(C(=O)O)ccc21             Kb                  =    110
21  O=C(O)c1ccc2cnn(Cc3cc(Br)ccc3OCC3CCCC3)c2c1             Kb                  =      1
22  O=C(O)c1cccc2nn(Cc3cc(Cl)ccc3OCC3CC3)cc12             Kb                  =   1200
23  CC(C)COc1ccc(OC(F)F)cc1Cn1ncc2cc(C(=O)O)ccc21             Kb                  =      5
24  CC(C)COc1ccc(Br)cc1Cn1ncc2ccc(C(=O)O)cc21             Kb                  =     20
25  CC(C)COc1ccc(Br)cc1Cn1ccc2nc(C(=O)O)ccc21             Kb                  =      8
26  CC(C)COc1ccc(S(C)(=O)=O)cc1Cn1ncc2cc(C(=O)O)ccc21             Kb                  =    500
27  CCC(CC)COc1ccc(Cl)cc1Cn1ccc2cc(C(=O)O)ccc21             Kb                  =    150
28  CC(C)COc1cc(Cl)c(Cl)cc1Cn1ncc2cc(C(=O)O)ccc21             Kb                  =      6
29  Cc1nn(Cc2cc(Br)ccc2OCC(C)C)c2ccc(C(=O)O)cc12             Kb                  =     13
30  CC(C)COc1ccc(Br)cc1Cn1ncc2c(C(=O)O)cccc21             Kb                  =     20
31  CC(C)COc1ccc(Cl)cc1Cn1ncc2cc(C(=O)O)cnc21             Kb                  =    150
32  CCC(CC)COc1ccc(Cl)cc1Cn1cc2c(C(=O)O)cccc2n1             Kb                  =    110
33  CC(C)COc1ccc(Br)cc1Cn1cc2cc(C(=O)O)ccc2n1             Kb                  =   3300
34  CC(C)(C)COc1ccc(Br)cc1Cn1ncc2cc(C(=O)O)ccc21             Kb                  =      2

====

Recorded measurements of log10 Kb, one per entry
Target: human prostanoid EP4 receptor (Homo sapiens, UniProt P35408)
Construct: expressed in transfected cells
Sequence (P35408 whole entry): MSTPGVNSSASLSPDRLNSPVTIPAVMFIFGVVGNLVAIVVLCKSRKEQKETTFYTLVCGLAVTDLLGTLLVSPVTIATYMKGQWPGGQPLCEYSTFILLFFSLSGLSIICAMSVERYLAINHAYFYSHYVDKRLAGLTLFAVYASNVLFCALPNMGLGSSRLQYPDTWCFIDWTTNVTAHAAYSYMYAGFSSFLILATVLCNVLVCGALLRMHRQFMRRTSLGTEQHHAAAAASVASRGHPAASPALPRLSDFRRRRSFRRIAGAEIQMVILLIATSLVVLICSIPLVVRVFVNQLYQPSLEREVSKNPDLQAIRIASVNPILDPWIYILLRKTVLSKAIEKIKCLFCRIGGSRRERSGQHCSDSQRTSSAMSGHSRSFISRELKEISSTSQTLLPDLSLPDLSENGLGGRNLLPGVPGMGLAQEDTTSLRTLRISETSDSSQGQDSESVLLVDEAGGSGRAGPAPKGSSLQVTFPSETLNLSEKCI
Test: FLIPR Ca2+ signaling PG antagonist assay, EP4 stable cell line
Type: cell-based
Conditions: HEK-293 EBNA cells, human recombinant EP4 with chimeric Gqs; standard agonist PGE2
READOUT_LABEL: log10 Kb (log10 of the value in nM)

>>> print(df.to_string())
                                    compound  readout_label   val
 0  CC(C)COc1ccc(OC(F)(F)F)cc1Cn1ncc2cc(C(=O)O)ccc21 [Example 20]       log10 Kb  1.48
 1  CC(C)COc1ccc(Cl)cc1Cn1cc2c(C(=O)O)cccc2n1 [Example 37]       log10 Kb  2.85
 2  CCC(CC)COc1ccc(Cl)cc1Cn1ncc2cc(C(=O)O)ncc21 [Example 63]       log10 Kb  3.40
 3  O=C(O)c1ccc2c(cnn2Cc2cc(Cl)ccc2OCC2CCCC2)c1 [Example 10]       log10 Kb  1.30
 4  CC(C)COc1ccc(C(F)(F)F)cc1Cn1ncc2cc(C(=O)O)ccc21 [Example 18]       log10 Kb  1.78
 5  Cc1ccc(OCC(C)C)c(Cn2ncc3cc(C(=O)O)ccc32)n1 [Example 50]       log10 Kb  3.26
 6  O=C(O)c1ccc2c(cnn2Cc2cc(Cl)ccc2OCc2ccc(Cl)cc2)c1 [Example 9]       log10 Kb  3.48
 7  CCC(CC)COc1ccc(Cl)cc1Cn1cc2c(C(=O)O)cccc2n1 [Example 39]       log10 Kb  3.20
 8  CC(C)COc1ccc(Cl)cc1Cn1cc2cc(C(=O)O)ccc2n1 [Example 16]       log10 Kb  2.78
 9  O=C(O)c1ccc2c(cnn2Cc2cc(Cl)ccc2OCc2ccccc2)c1 [Example 8]       log10 Kb  3.11
10  Cc1nn(Cc2cc(Br)ccc2OCC(C)C)c2ccc(C(=O)O)cc12 [Example 21]       log10 Kb  1.85
11  O=C(O)c1ccc2cnn(Cc3cc(Br)ccc3OCC3CCCC3)c2c1 [Example 44]       log10 Kb  3.51
12  CC(C)COc1ccc(Br)cc1Cn1ccc2cc(C(=O)O)cnc21 [Example 72]       log10 Kb  2.34
13  CC(C)COc1ccc(O)cc1Cn1ncc2cc(C(=O)O)ccc21 [Example 54]       log10 Kb  3.43
14  CC(C)COc1ccc(Br)cc1Cn1cnc2cc(C(=O)O)ccc21 [Example 79]       log10 Kb  1.90
15  CCc1nn(Cc2cc(Br)ccc2OCC(CC)CC)c2ccc(C(=O)O)cc12 [Example 65]       log10 Kb  1.74
16  CC(C)COc1ccc(Cl)cc1Cn1ncc2cc(C(=O)O)cnc21 [Example 57]       log10 Kb  3.11
17  CC(C)COc1ccc(OC(F)(F)F)cc1Cn1ccc2cc(C(=O)O)ccc21 [Example 71]       log10 Kb  2.45
18  Cc1nn(Cc2cc(OC(F)(F)F)ccc2OCC(C)C)c2ccc(C(=O)O)cc12 [Example 22]       log10 Kb  2.54
19  CC(C)COc1ccc(Br)cc1Cn1cc2cc(C(=O)O)ccc2n1 [Example 17]       log10 Kb  2.78
20  O=C(O)c1cccc2c1cnn2Cc1cc(Cl)ccc1OCc1ccc(Cl)cc1 [Example 40]       log10 Kb  3.40
